Measured Fg, listed per entry.
Organism: Homo sapiens
Experiment: Fraction escaping gut-wall elimination in human
Conditions: in vivo
Just the number, please, no unit attached.

Look over these answered cases.
Measured Fg of CCc1cccc2cc(C(O)CNC(C)(C)C)oc12 (configuration not stated) : 0.7

The compound listed as `Nc1ccc(S(=O)(=O)Nc2ncccn2)cc1` shows Fg equal to 1.01

Others:
Item: `CN1C(C(=O)Nc2ccccn2)=C(O)c2sccc2S1(=O)=O` | Fg: 1

Sure, the documented Fg for `COc1cc(Cc2cnc(N)nc2N)cc(OC)c1OC` is 0.83

----------
Species on record: Homo sapiens
Assay: in vitro
Conditions: plasma
MEASURED ATTRIBUTE: fraction unbound
Format: numeric value only, no unit, no commentary.

For CCOC(=O)C1(c2ccccc2)CCC=CC1N(C)C (centres undefined) the compound record lists fraction unbound as 0.21

Reported fraction unbound ( `CO/N=C(\C(=O)N[C@@H]1C(=O)N2C(C(=O)O)=C(C)CS[C@H]12)c1csc(N)n1` ) = 0.78

More entries:
fraction unbound recorded for this compound, CCc1cccc2cc(C(O)CNC(C)(C)C)oc12 (centres undefined) , is 0.19

Quick note, fraction unbound for `Cc1cccc(C)c1NC(=O)NCCCNC(C)C` landed at 0.86

----------
Organism: Homo sapiens
Experiment: Hepatic clearance in human
Conditions: in vivo
# binarize CL: threshold 2 mL/min/kg inclusive, high side 1, low side -1

Is CL for CN1CCN(C(=O)OC2c3nccnc3C(=O)N2c2ccc(Cl)cn2)CC1 (centres undefined) [ZOPICLONE] at or above 2 mL/min/kg?
1

---
Could you please find out whether CC[C@H](C)C(=O)O[C@H]1C[C@@H](C)C=C2C=C[C@H](C)[C@H](CC[C@@H]3C[C@@H](O)CC(=O)O3)[C@H]21 [LOVASTATIN] has CL that meets 2 mL/min/kg or exceeds it?
1

Could you please find out whether CC(C)NCC(O)COc1cccc2ccccc12 (centres undefined) [PROPRANOLOL] has CL that meets 2 mL/min/kg or exceeds it?
1

Answer whether CL of COc1nc(C)nc(Cl)c1N=C1NCCN1 [MOXONIDINE] is greater than or equal to 2 mL/min/kg.
1

Please tell me: is the compound CNCC[C@@H](Oc1ccccc1C)c1ccccc1 [ATOMOXETINE] at or over 2 mL/min/kg in terms of CL?
1

Reported CL at or above 2 mL/min/kg? Nc1nc2c(c(=O)[nH]1)N(C=O)C(CNc1ccc(C(=O)N[C@@H](CCC(=O)O)C(=O)O)cc1)CN2 (some centres undefined) [LEUCOVORIN]
1

CL >= 2 mL/min/kg for CC(C)(C)NCC(O)c1cc(O)cc(O)c1 (centres undefined) [TERBUTALINE] ?
-1

# check: CL of CO/N=C(\C(=O)N[C@@H]1C(=O)N2C(C(=O)O)=C(COC(N)=O)CS[C@H]12)c1ccco1 [CEFUROXIME] is greater than or equal to 2 mL/min/kg
-1

----------
Assay: clinical
Conditions: human, in vivo
MEASURED ATTRIBUTE: clearance (mL/min/kg)
Could you give me the number in mL/min/kg? Just the number is fine.

A selection of reference data follows.
For this compound ( c1ccc2c(c1)OCC(C1=NCCN1)O2 (centres undefined) ), measured clearance is 10

Record C[C@@H](O)[C@H]1C(=O)N2C(C(=O)O)=C(SCCN=CN)C[C@H]12 [IMIPENEM ANHYDROUS] . Reported clearance: 3

The compound listed as `C[C@@H]1[C@H](O)[C@@H](C)/C=C/C=C/C=C/C=C/C=C/C=C/C=C/[C@H](O[C@@H]2O[C@H](C)[C@@H](O)[C@H](N)[C@@H]2O)C[C@@H]2O[C@](O)(C[C@@H](O)C[C@@H](O)[C@H](O)CC[C@@H](O)C[C@@H](O)CC(=O)O[C@H]1C)C[C@H](O)[C@H]2C(=O)O` shows clearance equal to 0.46

Now consider a different compound.
Per the records, this compound ( `CC(C)c1nc(CN(C)C(=O)N[C@H](C(=O)N[C@@H](Cc2ccccc2)C[C@H](O)[C@H](Cc2ccccc2)NC(=O)OCc2cncs2)C(C)C)cs1` ) has clearance equal to 1.2
